Parameter 'readout' = pIC50; parameter 'system' = UCHL1 (Homo sapiens (Human), UniProt P09936).
Sequence (P09936 whole entry, species assumed): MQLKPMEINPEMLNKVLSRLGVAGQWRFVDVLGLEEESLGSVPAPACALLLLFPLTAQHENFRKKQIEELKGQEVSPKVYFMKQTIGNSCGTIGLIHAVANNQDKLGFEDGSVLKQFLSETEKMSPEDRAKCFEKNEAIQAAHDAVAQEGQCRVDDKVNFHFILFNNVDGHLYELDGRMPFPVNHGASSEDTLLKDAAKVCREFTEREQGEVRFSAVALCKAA
Field pIC50 (float): negative decimal logarithm of the concentration in molar.

Known results for compounds:
[
  {
    "compound": "N#CN1CCC(C(=O)Nc2nc3c(s2)CN(C(=O)c2ccccc2)CC3)C1 (centres unmarked)",
    "pIC50": 7.00
  },
  {
    "compound": "Cc1noc(C)c1-c1ccc2nc(NC(=O)[C@@H]3CCN(C#N)C3)sc2c1",
    "pIC50": 5.73
  },
  {
    "compound": "N#CN1CC[C@H](C(=O)Nc2cn(-c3ccccc3)cn2)C1",
    "pIC50": 6.81
  },
  {
    "compound": "N#CN1CC[C@H](C(=O)Nc2nc3ccccc3[nH]2)C1",
    "pIC50": 5.44
  }
]

--- query ---
Param readout= pIC50; system= UCHL1 (Homo sapiens (Human), UniProt P09936); entry= Cc1noc(C)c1-c1ccc2nc(NC(=O)[C@H]3CCN(C#N)C3)sc2n1 ; returns value.
7.05
